molecular target: C-terminal GST-tagged, recombinant, human IGF-1R, amino acids 954-1367 (Homo sapiens, UniProt P08069); construct: human IGF-1R, amino acids 954-1367 expressed by baculovirus in Sf21 cells; GST (C); assay: IGF-1R homogenous time-resolved fluorescence (HTRF) in vitro kinase assay; details: IGF-1R kinase, ATP 50 μM final, biotinylated peptide substrate 0.5 μM, 60 minutes at room temperature
Sequence (P08069 954-1367): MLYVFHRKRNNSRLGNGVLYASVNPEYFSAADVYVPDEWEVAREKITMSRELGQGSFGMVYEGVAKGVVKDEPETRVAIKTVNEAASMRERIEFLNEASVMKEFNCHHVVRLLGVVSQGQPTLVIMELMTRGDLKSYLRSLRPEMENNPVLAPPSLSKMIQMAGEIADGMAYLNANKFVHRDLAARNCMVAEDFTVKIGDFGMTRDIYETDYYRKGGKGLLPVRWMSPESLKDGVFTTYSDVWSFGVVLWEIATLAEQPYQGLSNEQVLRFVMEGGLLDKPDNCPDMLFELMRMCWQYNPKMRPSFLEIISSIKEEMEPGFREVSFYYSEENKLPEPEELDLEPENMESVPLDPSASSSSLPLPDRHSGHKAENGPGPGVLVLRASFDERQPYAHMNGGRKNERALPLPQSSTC
pIC50: −log10 of the molar value.
compounds and their reported pIC50
observable: pIC50

{"smiles.representation": "COc1ccccc1Nc1nccc(-c2c(-c3ccc4nc(Cc5ccccc5)[nH]c4c3)nc3ccccn23)n1", "observable": "pIC50", "measured": "7.00 to 7.29"}
{"smiles.representation": "CS(=O)(=O)c1cccc(Nc2nccc(-c3c(-c4ccc5nc(Cc6ccccc6)[nH]c5c4)nc4ccccn34)n2)c1", "observable": "pIC50", "measured": "7.00 to 7.29"}
{"smiles.representation": "CN(C)CCc1cccc(Nc2nccc(-c3c(-c4ccc5nc(Cc6ccccc6)[nH]c5c4)nc4ccccn34)n2)c1", "observable": "pIC50", "measured": "> 8.00"}
{"smiles.representation": "COc1ccccc1Nc1nccc(-c2c(-c3ccc4nc(Cc5ccccc5)[nH]c4c3)nc3sccn23)n1", "observable": "pIC50", "measured": "7.30 to 8.00"}
{"smiles.representation": "COc1cc(Cl)ccc1Nc1nccc(-c2c(-c3ccc4nc(Cc5ccccc5)[nH]c4c3)nc3ccccn23)n1", "observable": "pIC50", "measured": "6.30 to 7.00"}
{"smiles.representation": "Cn1cc(Nc2nccc(-c3c(-c4ccc5[nH]c(-c6ccccc6)nc5c4)nc4ccccn34)n2)cn1", "observable": "pIC50", "measured": "< 6.30"}
{"smiles.representation": "COc1ccc(S(C)(=O)=O)cc1Nc1nccc(-c2c(-c3ccc4nc(Cc5ccccc5)[nH]c4c3)nc3ccccn23)n1", "observable": "pIC50", "measured": "7.30 to 8.00"}
